Each recorded value in this set is attributed to PubChem BioAssay (EPA / NIEHS).

- Read-out: glucuronosyltransferase (UGT1A1), UGT1A1 (gene 54658)
- protocol-text: CLD_UGT1A1_24hr: CellzDirect (CLD) Gene Expression Assay for glucuronosyltransferase (UGT1A1) at 24 hours (AID 2283696)
Inconclusive results are not listed. Active and inactive are the calls of the source. The calls were made as follows: active = hit-call score of the fitted dose curve at least 0.9, where 1 is the maximum; inconclusive = response in the unintended direction; inactive = score below 0.9.
# output must be one of TRUE for active, FALSE for inactive

Example results:
# molecule, label
data = [
    ("CC1(C)C(C=C(Cl)Cl)C1C(=O)OC(C#N)c1cccc(Oc2ccccc2)c1 (stereo not drawn)", "TRUE"),
    ("CC(C)Nc1nc(Cl)nc(NC(C)C)n1", "TRUE"),
    ("CSC(=O)c1c(C(F)F)nc(C(F)(F)F)c(C(=O)SC)c1CC(C)C", "FALSE"),
]

IN: Please state the recorded outcome for this molecule: CCCN(CC)CC1COC2(CCC(C(C)(C)C)CC2)O1 (stereo not drawn)
OUT: FALSE

IN: Just curious, what result did "O=C(Nc1ccccc1-c1ccc(Cl)cc1)c1cccnc1Cl" get here?
OUT: FALSE

IN: Called result for CC(C)C1(C)N=C(c2ncccc2C(=O)O)NC1=O (stereo not drawn)
OUT: FALSE

IN: Hi, do you know how "CC(C)N1C(=O)c2ccccc2NS1(=O)=O" came out in this test?
OUT: FALSE

IN: For "Nc1c(Cl)c(Cl)nc(C(=O)O)c1Cl" , what call appears in the results of this test?
OUT: FALSE

IN: Which outcome was entered for the molecule CCNP(=S)(OC)O/C(C)=C/C(=O)OC(C)C (stereo not drawn) in this test?
OUT: TRUE

IN: Short answer needed: outcome of this test for CC(C)=CC1C(C(=O)OCc2coc(Cc3ccccc3)c2)C1(C)C (stereo not drawn) ?
OUT: FALSE

IN: Hey, what did the test say about CC(C)(C)C(=O)C(Oc1ccc(Cl)cc1)n1cncn1 (stereo not drawn) ?
OUT: FALSE

IN: Give the logged outcome of this assay for the following molecule: CCCC(=NOCC)C1=C(O)CC(CC(C)SCC)CC1=O (stereo not drawn)
OUT: FALSE

IN: What is the recorded call for this molecule in the test? CCN(CC)C(=O)C(C)Oc1cccc2ccccc12 (stereo not drawn)
OUT: FALSE
